- Species: Rattus norvegicus
- experimental_details: Open TG-GATES - Regimen: Daily Repeat
- Assay type: toxicity, organism-based, Sprague-Dawley
- Design: regimen Daily Repeat, gender Male, age 6 weeks
- particulars: in vivo, po, 0 mg/kg, 72 h, tissue Plasma, route gavage, dose level Control, time 3 day
// Condition not met strictly below 50 IU/L in ALT; Condition met otherwise

Prompt: For this molecule, is measured ALT 50 IU/L or higher? Brc1ccccc1
Completion: Condition met

Prompt: Proceed to CN(C)CCC(c1ccc(Cl)cc1)c1ccccn1 (stereo not drawn)
Completion: Condition not met

Prompt: Proceed to O=C(OC[C@H]1O[C@@H](OC(=O)c2cc(O)c(O)c(OC(=O)c3cc(O)c(O)c(O)c3)c2)[C@H](OC(=O)c2cc(O)c(O)c(OC(=O)c3cc(O)c(O)c(O)c3)c2)[C@@H](OC(=O)c2cc(O)c(O)c(OC(=O)c3cc(O)c(O)c(O)c3)c2)[C@@H]1OC(=O)c1cc(O)c(O)c(OC(=O)c2cc(O)c(O)c(O)c2)c1)c1cc(O)c(O)c(OC(=O)c2cc(O)c(O)c(O)c2)c1
Completion: Condition not met

Prompt: Proceed to CNC(=C[N+](=O)[O-])NCCSCc1ccc(CN(C)C)o1
Completion: Condition not met

Prompt: Proceed to Cc1nnc2n1-c1ccc(Cl)cc1C(c1ccccc1Cl)=NC2
Completion: Condition not met

Prompt: Proceed to Nc1c2c(nc3ccccc13)CCCC2
Completion: Condition met

Prompt: Proceed to COC(=O)C1=C(C)NC(C)=C(C(=O)OC)C1c1ccccc1[N+](=O)[O-]
Completion: Condition not met

Prompt: Proceed to NC1=NC(=O)C(c2ccccc2)O1 (stereo not drawn)
Completion: Condition not met

Prompt: Proceed to CC(C)NNC(=O)c1ccncc1
Completion: Condition not met

Prompt: Proceed to CCCc1cc(=O)[nH]c(=S)[nH]1
Completion: Condition not met

Prompt: Proceed to CN1C(=O)CCS(=O)(=O)C1c1ccc(Cl)cc1 (stereo not drawn)
Completion: Condition not met

Prompt: Proceed to CCOc1ccc(NC(C)=O)cc1
Completion: Condition not met

Prompt: Proceed to CN/C(=N/CCSCc1nc[nH]c1C)NC#N
Completion: Condition not met

====

- Species on record: Rattus norvegicus
- experimental_details: Open TG-GATES - Regimen: Daily Repeat
- Type: toxicity, organism-based, Sprague-Dawley
- Parameters: regimen Daily Repeat, gender Male, age 6 weeks
- particulars: in vivo, po, 1000 mg/kg, […], tissue Blood, route gavage, dose level High, time 7 day
observed_property: Lym (%)
Expressed in %, but write only the number.

Prompt: I have this molecule here, CN/C(=N/CCSCc1nc[nH]c1C)NC#N [CIMETIDINE] , and I need its recorded Lym.
Completion: 81

Prompt: Proceed to CCOc1ccc(NC(C)=O)cc1 [PHENACETIN]
Completion: 62.2

Prompt: Proceed to COC(=O)C1=C(C)NC(C)=C(C(=O)OC)C1c1ccccc1[N+](=O)[O-] [NIFEDIPINE]
Completion: 71.4

====

- Species: Rattus norvegicus
- experimental_details: Open TG-GATES - Regimen: Single
- Type: toxicity, organism-based, Sprague-Dawley
- Set-up: regimen Single, gender Male, age 6 weeks
- particulars: in vivo, po, 100 mg/kg, 9 h, tissue Blood, route gavage, dose level Low
The following compounds are shown together with reported MCH values.

// below: answered compounds
[[record]]
smiles_string = "O=C(OC[C@H]1O[C@@H](OC(=O)c2cc(O)c(O)c(OC(=O)c3cc(O)c(O)c(O)c3)c2)[C@H](OC(=O)c2cc(O)c(O)c(OC(=O)c3cc(O)c(O)c(O)c3)c2)[C@@H](OC(=O)c2cc(O)c(O)c(OC(=O)c3cc(O)c(O)c(O)c3)c2)[C@@H]1OC(=O)c1cc(O)c(O)c(OC(=O)c2cc(O)c(O)c(O)c2)c1)c1cc(O)c(O)c(OC(=O)c2cc(O)c(O)c(O)c2)c1"
measured_result = "22.3 pg"

[[record]]
smiles_string = "Cc1nnc2n1-c1ccc(Cl)cc1C(c1ccccc1Cl)=NC2"
measured_result = "20.6 pg"

[[record]]
smiles_string = "CN/C(=N/CCSCc1nc[nH]c1C)NC#N"
measured_result = "22.4 pg"

[[record]]
smiles_string = "COC(=O)C1=C(C)NC(C)=C(C(=O)OC)C1c1ccccc1[N+](=O)[O-]"
measured_result = "20.8 pg"


Prompt: I have this compound here, CNC(=C[N+](=O)[O-])NCCSCc1ccc(CN(C)C)o1 , and I need its recorded MCH.
Completion: 22.1 pg

====

The following compounds are shown together with reported TC values.
- Species on record: Rattus norvegicus
- experimental_details: Open TG-GATES - Regimen: Single
- Format: toxicity, organism-based, Sprague-Dawley
- Parameters: regimen Single, gender Male, age 6 weeks
- particulars: in vivo, po, 0 mg/kg, 6 h, tissue Plasma, route gavage, dose level Control
Expressed in mg/dL, but write only the number.

// below: answered compounds
[[record]]
compound = "CCCc1cc(=O)[nH]c(=S)[nH]1 [PROPYLTHIOURACIL]"
observed_property = "TC"
measured_result = 80

[[record]]
compound = "O=C(OC[C@H]1O[C@@H](OC(=O)c2cc(O)c(O)c(OC(=O)c3cc(O)c(O)c(O)c3)c2)[C@H](OC(=O)c2cc(O)c(O)c(OC(=O)c3cc(O)c(O)c(O)c3)c2)[C@@H](OC(=O)c2cc(O)c(O)c(OC(=O)c3cc(O)c(O)c(O)c3)c2)[C@@H]1OC(=O)c1cc(O)c(O)c(OC(=O)c2cc(O)c(O)c(O)c2)c1)c1cc(O)c(O)c(OC(=O)c2cc(O)c(O)c(O)c2)c1 [TANNIC ACID]"
observed_property = "TC"
measured_result = 79.2


Continue with the next compound.
Prompt: I have this compound here, NC1=NC(=O)C(c2ccccc2)O1 (centres undefined) [PEMOLINE] , and I need its recorded TC.
Completion: 84.2

====

- Species on record: Rattus norvegicus
- experimental_details: Open TG-GATES - Regimen: Single
- Type: toxicity, organism-based, Sprague-Dawley
- Parameters: regimen Single, gender Male, age 6 weeks
- particulars: in vivo, po, 300 mg/kg, 6 h, route gavage, dose level Middle
The following compounds are shown together with reported TERMINAL_BW values.
Expressed in g, but write only the number.

Prompt: I have this compound here, CN/C(=N/CCSCc1nc[nH]c1C)NC#N [CIMETIDINE] , and I need its recorded TERMINAL_BW.
Completion: 209.1

Prompt: Proceed to O=C(OC[C@H]1O[C@@H](OC(=O)c2cc(O)c(O)c(OC(=O)c3cc(O)c(O)c(O)c3)c2)[C@H](OC(=O)c2cc(O)c(O)c(OC(=O)c3cc(O)c(O)c(O)c3)c2)[C@@H](OC(=O)c2cc(O)c(O)c(OC(=O)c3cc(O)c(O)c(O)c3)c2)[C@@H]1OC(=O)c1cc(O)c(O)c(OC(=O)c2cc(O)c(O)c(O)c2)c1)c1cc(O)c(O)c(OC(=O)c2cc(O)c(O)c(O)c2)c1 [TANNIC ACID]
Completion: 184.2

====

- Organism: Rattus norvegicus
- experimental_details: Open TG-GATES - Regimen: Single
- Type: toxicity, organism-based, Sprague-Dawley
- Parameters: regimen Single, gender Male, age 6 weeks
- particulars: in vivo, po, 100 mg/kg, 3 h, tissue Blood, route gavage, dose level Low
observed_property: APTT (s)
Expressed in s, but write only the number.

[[record]]
smiles_string = "Cc1nnc2n1-c1ccc(Cl)cc1C(c1ccccc1Cl)=NC2"
measured_result = 17.6

[[record]]
smiles_string = "CNC(=C[N+](=O)[O-])NCCSCc1ccc(CN(C)C)o1"
measured_result = 19.1

[[record]]
smiles_string = "CN/C(=N/CCSCc1nc[nH]c1C)NC#N"
measured_result = 18.3


Continue with the next compound.
Prompt: I have this compound here, O=C(OC[C@H]1O[C@@H](OC(=O)c2cc(O)c(O)c(OC(=O)c3cc(O)c(O)c(O)c3)c2)[C@H](OC(=O)c2cc(O)c(O)c(OC(=O)c3cc(O)c(O)c(O)c3)c2)[C@@H](OC(=O)c2cc(O)c(O)c(OC(=O)c3cc(O)c(O)c(O)c3)c2)[C@@H]1OC(=O)c1cc(O)c(O)c(OC(=O)c2cc(O)c(O)c(O)c2)c1)c1cc(O)c(O)c(OC(=O)c2cc(O)c(O)c(O)c2)c1 , and I need its recorded APTT.
Completion: 16.1

====

The following compounds are shown together with reported KIDNEY_R values.
- Species: Rattus norvegicus
- experimental_details: Open TG-GATES - Regimen: Single
- Format: toxicity, organism-based, Sprague-Dawley
- Design: regimen Single, gender Male, age 6 weeks
- particulars: in vivo, po, 100 mg/kg, 24 h, tissue Kidney, route gavage, dose level Low
Expressed in g, but write only the number.

// below: answered compounds
[[record]]
smiles_string = "Cc1nnc2n1-c1ccc(Cl)cc1C(c1ccccc1Cl)=NC2"
measured_result = 0.9

[[record]]
smiles_string = "CN/C(=N/CCSCc1nc[nH]c1C)NC#N"
measured_result = 1.1

[[record]]
smiles_string = "O=C(OC[C@H]1O[C@@H](OC(=O)c2cc(O)c(O)c(OC(=O)c3cc(O)c(O)c(O)c3)c2)[C@H](OC(=O)c2cc(O)c(O)c(OC(=O)c3cc(O)c(O)c(O)c3)c2)[C@@H](OC(=O)c2cc(O)c(O)c(OC(=O)c3cc(O)c(O)c(O)c3)c2)[C@@H]1OC(=O)c1cc(O)c(O)c(OC(=O)c2cc(O)c(O)c(O)c2)c1)c1cc(O)c(O)c(OC(=O)c2cc(O)c(O)c(O)c2)c1"
measured_result = 0.9


Prompt: I have this compound here, COC(=O)C1=C(C)NC(C)=C(C(=O)OC)C1c1ccccc1[N+](=O)[O-] , and I need its recorded KIDNEY_R.
Completion: 0.9

Prompt: Proceed to CNC(=C[N+](=O)[O-])NCCSCc1ccc(CN(C)C)o1
Completion: 1
